Provenance of the data: patent US20220177587A1

Provide the recorded Fold Increase over WT CD80-IgV-Fe for the entries that follow.
Target: CD28 (Homo sapiens, UniProt P10747)
Experiment: Jurkat/IL2 + CHO/OKT3 +/- PD-L1 reporter assay: PD-L1-dependent CD28 costimulation
Assay type: cell-based
Set-up: host or cells: Jurkat cells expressing an IL-2-luciferase reporter
Details: Table E21; Jurkat/IL2 + CHO/OKT3/PD-L1; 5.0 nM
Report the figure in fold without appending any unit label.

### Prompt I'd like to know its Fold Increase over WT CD80-IgV-Fe. The molecule in question is E35D/D46V/M47L/V68M/L85Q (protein) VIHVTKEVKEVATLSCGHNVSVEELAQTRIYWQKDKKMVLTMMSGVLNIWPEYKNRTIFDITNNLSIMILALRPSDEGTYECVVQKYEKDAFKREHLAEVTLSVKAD
### Response 6.2

### Prompt Item: E35D/D46V/M47V/V68M/L85Q (protein) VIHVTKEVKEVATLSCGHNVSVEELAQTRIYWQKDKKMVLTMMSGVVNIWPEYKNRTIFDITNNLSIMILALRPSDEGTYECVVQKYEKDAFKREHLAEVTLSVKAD
### Response 8.5

### Prompt Item: E35D/N48K/K89N (protein) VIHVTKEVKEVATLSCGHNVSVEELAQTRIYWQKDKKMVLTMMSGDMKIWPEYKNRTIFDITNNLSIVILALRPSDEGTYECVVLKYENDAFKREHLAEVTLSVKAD
### Response 6.3
